# target_desc: TEAD4 YAP50-100 (Homo sapiens)
# Sequence (Q15561 217-434 limits assumed): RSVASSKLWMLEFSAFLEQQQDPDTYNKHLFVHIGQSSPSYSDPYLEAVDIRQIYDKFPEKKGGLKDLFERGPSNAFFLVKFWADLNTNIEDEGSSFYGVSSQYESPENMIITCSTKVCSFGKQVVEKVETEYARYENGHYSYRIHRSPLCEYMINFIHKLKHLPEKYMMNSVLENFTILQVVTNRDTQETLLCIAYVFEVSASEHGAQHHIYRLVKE
# test_description: TEAD4-YAP HTRF (TR-FRET) protein-protein interaction assay
# particulars: TEAD4, YAP peptide 50-100, HTRF; read-out: TEAD4 YAP50-100 HTRF combined: EC50
measure: pEC50
Answers are plain numbers, as −log10 of the molar value.

Record excerpt, results attached:
compound: CCCCc1ccc(-c2cc(=O)n3nc(-c4nccnc4C)c(C(=O)N4CC(CF)C4)c3[nH]2)cc1
pEC50: 6.74

compound: [2H]C1([2H])C([2H])([2H])C([2H])([2H])C([2H])(c2ccc(-c3cc(=O)n4nc(-c5nccnc5C)c(C(=O)N5C[C@H](CF)[C@@H]5C)c4[nH]3)cc2)C([2H])([2H])C1([2H])[2H]
pEC50: 7.52

compound: O=C(c1c(C2CNCCO2)nn2c(=O)cc(-c3ccc(C4CCCCC4)cc3)[nH]c12)N1CC(CF)C1 (single isomer, unassigned) [Enantiomer A, Example 63]
pEC50: 5.80

State the recorded pEC50 for every item in the following list.
1. O=C(c1c(-c2ncccn2)nn2c(=O)cc(-c3ccc(C4CCCCC4)c(F)c3)[nH]c12)N1CC(CF)C1
2. Cc1nccnc1-c1nn2c(=O)cc(-c3ccc(C4CCCCC4)c(F)c3)[nH]c2c1C(=O)N1CC(CF)C1

Response line:
7.15
7.52
